protocol: Toxicity in mice
experimental_conditions: mouse, in vivo, ip
reported_metric: LD50 (mg/kg)

molecule="COC1=C(C)C(=O)C2=C(C1=O)C1C3CC4=C(C(=O)C(OC)=C(C)C4=O)C(CNC(=O)C(C)=O)N3C(C#N)C(C2)N1C (stereo not shown)" result=40
